condensed nuclei values by entry
Test: HT29 colon tumor cell growth inhibition, primary screen, imaging, high content imaging, 72 h, CellTiter-Glo (AID 772);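 further: condensed means nuclear area below control median minus 1.5 SD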
Details: HCS imaging cell count, measured here: percent cells with condensed nuclei, at 10 µM, stronger effect = higher value
Screen size: about 3,300 compounds; about 20 (0.6%) were called active. What follows is part of a selection rich in actives, with near analogues and random picks from the rest.
measured_quantity: condensed nuclei (%)

>>> value_observed("CCOc1cccc(-c2nn3c(-c4ccco4)nnc3s2)c1")
6.05
>>> value_observed("C=CCOC(=O)C1=C(C)NC(SCC(=O)Nc2ccc(C)c(Cl)c2)=C(C#N)C1c1ccco1 (stereo not given)")
10.5
>>> value_observed("Cc1ccc(OCC(=O)NCC(=O)n2nc(C)cc2C)cc1")
2.73
>>> value_observed("CCOc1ccc(C2C(C(=O)c3ccc(C)o3)=C(O)C(=O)N2CCN2CCOCC2)cc1OC (stereo not given)")
4.84
>>> value_observed("CC1(C)CC(=O)C(C=NCC(O)c2ccccc2)=C(O)C1 (stereo not given)")
3.13
